# Assay details: Toxicity liver stage against HepG2, at 10uM
# Format: cell-based
# Set-up: test concentration 10 uM, cell line HepG2-A16-CD81EGFP
# Experimental conditions: human, HepG2-A16-CD81EGFP cells; read-out: INHIBITION
Listed molecules paired with reported cytotoxicity at 10 µM
Quantity name: cytotoxicity at 10 µM (%)

> print(dat)
                                    molecule      val
 1  Cc1cc(C(=O)N(C)Cc2ccccc2OCC(C)C)cc(=O)[nH]1     8.45
 2  Cc1nn(C)c(Cl)c1C1CCCN1Cc1nc(C2CC2)no1 (stereo unspecified)    -6.42
 3  CN(C)CCN1CC(C(=O)NCc2cccc(-n3cccn3)c2)CC1=O (stereo unspecified)  -0.0342
 4  O=C(c1ccco1)N1CCO[C@@H]2CN(Cc3nccs3)CC[C@@H]2C1     -111
 5  Cc1cc(C)n(C2CN(C(=O)Cn3c(=O)c(C)nc4ccccc43)C2)n1    -7.59
 6  CSCC1CCN(C(=O)c2ccccc2NCc2cccnc2)C1 (stereo unspecified)    -3.33
 7  CCn1nc(C)c(CCNC(=O)c2coc(CN3CCOCC3)c2)c1C   -0.386
 8  COCC(=O)N1CC[C@H]2C[C@H](c3nnc(C4CC4)o3)O[C@@H]2C1     4.85
 9  Cc1nc(CN2CCCC(c3nc(C)n4c(C)c(C)sc34)C2)co1 (stereo unspecified)    -21.7
10  CCN(CC)C[C@H]1CN2CC[C@H]1C[C@@H]2CNC(=O)c1ccco1    -2.49
11  CC(C)c1noc(CS(=O)(=O)CC(=O)NCc2ccccc2)n1    -10.5

###

Listed molecules paired with reported cytotoxicity at 10 µM
# Assay details: Toxicity liver stage against HepG2, at 10uM
# Format: cell-based
# Set-up: test concentration 10 uM, cell line HepG2-A16-CD81EGFP
# Experimental conditions: human, HepG2-A16-CD81EGFP cells; read-out: INHIBITION
Quantity name: cytotoxicity at 10 µM

> print(dat)
                                    molecule          quantity.name     val
 1        CCOC(=O)c1nnc2ccccc2c1N1CCN(CC)CC1  cytotoxicity at 10 µM  -2.27%
 2  COC[C@]12COC[C@H]1CN(Cc1cc(OC)cc(OC)c1)C2  cytotoxicity at 10 µM  -6.33%
 3  Cn1cc(CN2CCO[C@H]3CN(Cc4ccco4)C[C@H]32)cn1  cytotoxicity at 10 µM   -140%
 4  Cc1cc(CC(C)NC2CCSCC2)[nH]n1 (stereo unspecified)  cytotoxicity at 10 µM   1.08%
 5  CN1CC2(CCN(C(=O)c3ccc4c(=O)n(C)cnc4c3)C2)OC1=O (stereo unspecified)  cytotoxicity at 10 µM   2.41%
 6  CC(C)c1cc(C(=O)N2CCC3(CCc4ccccc4C(=O)N3)C2)on1 (stereo unspecified)  cytotoxicity at 10 µM   2.53%
 7        COc1c(CNCc2ccccc2Cn2cccn2)c(C)nn1C  cytotoxicity at 10 µM   9.79%
 8  O=C(N[C@@H]1CN[C@H]2CCCO[C@H]21)c1cnccn1  cytotoxicity at 10 µM   6.38%
 9  Fc1cnc(N2CCC3(COCc4cnc(NCC5CC5)nc43)C2)nc1 (stereo unspecified)  cytotoxicity at 10 µM  -4.43%
10  CN1CCN([C@H]2CCN(C(=O)c3nn(C)cc3Cl)C[C@H]2CCCO)CC1  cytotoxicity at 10 µM  -2.86%
11           Clc1ccccc1-c1nc(CNCCn2cccn2)cs1  cytotoxicity at 10 µM  -3.45%

###

# Assay details: Toxicity liver stage against HepG2, at 10uM
# Assay type: cell-based
# Parameters: test concentration 10 uM, cell line HepG2-A16-CD81EGFP
# Experimental conditions: human, HepG2-A16-CD81EGFP cells; read-out: INHIBITION
Quantity name: cytotoxicity at 10 µM

> print(dat)
                                    compound      val
 1  Cc1nc(CN2CCCC(c3nccs3)C2)cs1 (configuration not stated)     2.3%
 2  COc1ncccc1CNC(=O)C1CC(=O)N(C)C1 (configuration not stated)   -14.6%
 3  Cc1csc(CNCC2CCCN(C(=O)OC(C)(C)C)C2)n1 (configuration not stated)   -6.82%
 4  COc1cccc(CN(C)C(=O)CN2CCN(c3nccn3C)CC2)c1    14.3%
 5  O=C(O)[C@@H]1CN(Cc2ccc3nsnc3c2)C[C@H]1c1cccnc1    4.46%
 6  O=C1NCCc2c1sc1ccc(C(=O)N3CC[C@H](CO)[C@H](O)C3)cc21    -1.7%
 7  COc1ccc(F)c(CN2CCCC(O)(CNCc3ncc[nH]3)C2=O)c1 (configuration not stated)    5.87%
 8          Cc1c(C(=O)NC2CCCC2)nnn1-c1ccccc1    11.4%
 9  Cc1nc(C)n(CC2CN(CC(=O)NC3CCCC3)CCO2)n1 (configuration not stated)   -4.83%
10  CC(C)NC(=O)[C@H]1C[C@H]2CN(C(=O)NCCc3ccccc3)C[C@@H]1O2    1.25%
11  COC(=O)C1CCN(C(=O)Cn2nc(C)nc2-c2ccccc2)CC1  -0.159%
12  Cc1ccsc1[C@@H]1CCN(C(=O)CCCn2cncn2)C[C@H]1O   -6.91%
13  Cc1cc(-c2nn(C)c(Cl)c2CN2CCOCC2CC(=O)O)no1 (configuration not stated)   -12.2%
14  CC(CNC(=O)c1c[nH]nn1)Oc1ccccc1Br (configuration not stated)  -0.509%
15        Cc1ncsc1CCC(=O)N1CCN(CCn2cncn2)CC1    3.21%
16  CCC(NC(=O)c1cnc(N(C)C)nc1C)c1ccc(S(C)(=O)=O)cc1 (configuration not stated)    -3.5%
17  Cc1csc(C2NC3(CCCC3)C(=O)N2CC2CC2)n1 (configuration not stated)    3.24%
18   N#Cc1ccccc1N1CCCN(C(=O)NCc2cc[nH]n2)CC1   0.428%
19      Cn1ccnc1CN1CCC2(CC1)CN(c1ccccn1)CCO2  -0.335%
20  CCN(C(=O)NCCc1ccc(C)cc1C)C(C)CS(C)(=O)=O (configuration not stated)    11.3%
21  Cc1ccc(C2CCCN2CC(=O)N(CCC#N)c2ccccc2)cc1 (configuration not stated)   -6.89%
22     CC(C)(C)c1cnc(CN2CCC(CN3CCOCC3)CC2)o1    3.63%
23  Cn1cc(C(=O)N[C@H]2CN(Cc3nccs3)[C@@H]3CCCO[C@H]23)cn1   0.893%
24      CCOCCN1CCN(Cc2csc(-c3cnn(C)c3)n2)CC1   -4.95%
25  O=C(c1ccco1)N1C[C@@H]2[C@@H](C1)OCC(=O)N2Cc1cccnc1    3.04%
26   CC(C)(C)n1nnnc1CN(Cc1ccccc1)Cc1ccccc1Cl    8.56%
27           CNC(=O)Cn1nnc(-c2cc3ccccc3o2)n1    5.65%
28     O=C(c1cc2c(s1)CCC2)N1CCC(c2ccncc2)CC1    39.7%
29  Cc1ccnc(CC(C)N(C)Cc2ccc3c(c2)CCO3)c1 (configuration not stated)    1.63%
30  CN1CCN(c2ccc(NCc3ccc(OC(F)(F)F)cc3)cn2)CC1    14.9%
31  CC(C)S(=O)(=O)N1CCN(C(=O)c2cnn(C)c2Cl)CC1     1.6%
32  CCC(CC)c1cc(C(=O)N2CCN(C(C#N)C(C)C)CC2)on1 (configuration not stated)    1.87%
33          CCC(=O)NCc1cc(C2CC2)n(C2CCCC2)n1   -4.36%
34  COc1cccc(Cl)c1C(C(=O)O)N1CCC(Cn2cccn2)CC1 (configuration not stated)   -12.5%
35  Cc1cc(C)c2cc(CNCc3ccccc3)c3nn(C)c(=O)n3c2c1   -1.47%
36  COc1cccc(N2CCC(CNCc3cccc(C#N)c3)C2)c1 (configuration not stated)   -15.3%
37  CC(C)c1nc(CN2CCN(C(C)c3nc(C4CC4)no3)CC2)no1 (configuration not stated)    6.54%
38  Cc1ccnn1CCC(=O)N1CCCC2(C1)NC(=O)c1ccccc1O2 (configuration not stated)  -0.776%
39  Cc1ccc2c(c1)CN(C(=O)c1cccnc1)C(CN(C)C)CO2 (configuration not stated)   -25.5%
40  CC(=O)Nc1ccc(Oc2cc(C)nc(C3CCCNC3)c2)cc1 (configuration not stated)    2.58%
41  Cc1noc(C)c1-c1cncc(C2CCCN2Cc2cc[nH]n2)n1 (configuration not stated)      13%
42  CCN1CC2(CCN(C(=O)N(C)C)CC2)COc2ccccc2S1(=O)=O    6.55%
43  CC(C)c1nc(-c2cc(C(=O)NCCN(C)C)c3ccccn23)cs1    4.77%
44  Cc1cc(NC(C)Cn2cccn2)n2nccc2n1 (configuration not stated)    1.99%
45       Cc1ccc(NC2CCN(C(=O)COCC3CC3)CC2)nn1   0.132%
46  O=C1CC2(CCN(Cc3ccccn3)C2)CN1c1cccnc1 (configuration not stated)   -8.75%
47  Cc1noc(C)c1CC(=O)N1CCC(c2ccn3nccc3n2)CC1  -0.317%
